- TARGET DESC: SARS-CoV-2 PL^pro (Severe acute respiratory syndrome coronavirus 2, UniProt P0DTD1)
- PROTOCOL DETAILS: FRET enzymatic inhibition assay on PL^pro
- Format: biochemical
pIC50: −log10 of the molar value.
MEASURED ATTRIBUTE: pIC50

In: Please tell me: pIC50 of O=C(O[C@@H]1O[C@@H]2COC(=O)c3cc(O)c(O)c(O)c3-c3c(cc(O)c(O)c3O)C(=O)O[C@H]([C@H]1O)[C@@H]2O)c1cc(O)c(O)c(O)c1 , system SARS-CoV-2 PL^pro (Severe acute respiratory syndrome coronavirus 2, UniProt P0DTD1)?
Out: < 4.00
